system-under-test: Fuc(a1-2)[Gal(a1-3)]Gal(b1-4)GlcNAc
assay-info: glycan array binding signal (z-score within array); higher = stronger binding
test-context: glycan notation: IUPAC condensed, linker removed
The sample as a whole holds a higher share of the strongest signals than the screen did.
measurement-name: glycan array binding signal (z-score)
Enter a number only.

Examples with their reported glycan array binding signal (z-score) follow.
[
  {
    "binder": "CGL (Crenomytilus grayanus), H2FH31 (protein) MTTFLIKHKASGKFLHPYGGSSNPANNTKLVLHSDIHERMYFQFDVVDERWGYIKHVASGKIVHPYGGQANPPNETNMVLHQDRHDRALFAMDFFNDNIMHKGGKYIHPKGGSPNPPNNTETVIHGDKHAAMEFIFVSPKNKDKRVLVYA",
    "readout-value": -0.063
  },
  {
    "binder": "SGC, Q9M345 (protein) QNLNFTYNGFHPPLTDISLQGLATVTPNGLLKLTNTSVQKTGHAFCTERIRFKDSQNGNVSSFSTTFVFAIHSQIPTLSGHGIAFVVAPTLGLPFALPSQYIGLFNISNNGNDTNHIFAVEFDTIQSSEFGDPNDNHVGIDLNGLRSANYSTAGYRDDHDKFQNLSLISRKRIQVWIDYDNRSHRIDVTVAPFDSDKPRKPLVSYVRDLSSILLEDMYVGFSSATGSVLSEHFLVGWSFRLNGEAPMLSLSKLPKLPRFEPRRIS",
    "readout-value": -0.374
  }
]

Now examine the next entry.
Problem: Give the measured glycan array binding signal (z-score) for SynCAM (Mus musculus) (protein) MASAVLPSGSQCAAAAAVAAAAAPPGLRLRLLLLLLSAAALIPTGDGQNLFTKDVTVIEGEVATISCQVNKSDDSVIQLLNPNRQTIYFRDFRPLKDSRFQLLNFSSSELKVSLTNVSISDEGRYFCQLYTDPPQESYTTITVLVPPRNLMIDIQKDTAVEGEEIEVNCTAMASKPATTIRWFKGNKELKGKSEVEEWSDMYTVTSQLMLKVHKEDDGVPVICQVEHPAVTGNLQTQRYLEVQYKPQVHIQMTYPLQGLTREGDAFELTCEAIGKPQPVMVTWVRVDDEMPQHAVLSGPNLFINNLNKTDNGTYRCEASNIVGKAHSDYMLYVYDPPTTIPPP
Solution: -1.34
